Parameter GI50: see the listing below.
test system: COLO 205; assay: NCI tumour cell line growth inhibition, 48 h
The source made the active and inactive calls. Cut-off read from the data, not from the text of the source: active = GI50 up to about 1.1 µM and inactive = higher.
property: GI50

- compound: "C[C@H](NC(=O)n1c2ccccc2c2ccccc21)C(=O)O"
  property: "GI50"
  experimental_value: "> 100 µM (inactive)"
- compound: "COc1cc(OC)c2c(c1OC)OCC(Cc1ccc(O)cc1)C2=O (stereo unspecified)"
  property: "GI50"
  experimental_value: "> 25 µM (inactive)"
- compound: "Cc1ccc(S(=O)(=O)N2CCC(C(=O)O)(c3ccccc3)CC2)cc1"
  property: "GI50"
  experimental_value: "> 100 µM (inactive)"
- compound: "OCC1OC(n2cnc3c(SCc4ccccc4)ncnc32)C(O)C1O (stereo unspecified)"
  property: "GI50"
  experimental_value: "14 µM (inactive)"
- compound: "CC(C)(C)C(=O)CC(=O)C(F)(F)C(F)(F)C(F)(F)F"
  property: "GI50"
  experimental_value: "19 µM (inactive)"
- compound: "C/C(=N\\c1ccc(N(C)C)cc1)c1ccccc1"
  property: "GI50"
  experimental_value: "17.8 µM (inactive)"
- compound: "BrCCC[P+](c1ccccc1)(c1ccccc1)c1ccccc1"
  property: "GI50"
  experimental_value: "1.61 µM (inactive)"
- compound: "Cn1c(=O)[nH]c2nncnc2c1=O"
  property: "GI50"
  experimental_value: "69.2 µM (inactive)"
- compound: "O=C(C(=O)c1ccc(Cc2ccc(C(=O)C(=O)c3ccccc3)cc2)cc1)c1ccccc1"
  property: "GI50"
  experimental_value: "> 100 µM (inactive)"
- compound: "O=C(O)/C(=C/c1ccccc1[N+](=O)[O-])c1ccccc1"
  property: "GI50"
  experimental_value: "> 100 µM (inactive)"
- compound: "COc1cc(Nc2c(C#N)[n+]([O-])c3ccccc3[n+]2[O-])cc(OC)c1OC"
  property: "GI50"
  experimental_value: "12.6 µM (inactive)"

###

tested on: SNB-19; test: NCI tumour cell line growth inhibition, 48 h
The source made the active and inactive calls. Rule as the data show it: active = GI50 up to about 1.1 µM and inactive = higher.
Consider the following compounds and their measured GI50 readings.
property: GI50

- compound: "O=C(O)/C(=C/c1ccccc1[N+](=O)[O-])c1cccs1"
  experimental_value: "> 100 µM (inactive)"
- compound: "CCOc1cn(C2CC(O)C(CO)O2)c(=O)[nH]c1=O (stereo not drawn)"
  experimental_value: "> 100 µM (inactive)"
- compound: "O=C1NC(=O)C(F)(n2cc(F)c(=O)[nH]c2=O)C(O)N1 (stereo not drawn)"
  experimental_value: "> 10 µM (inactive)"
- compound: "N=c1c2c(-c3ccccc3)c[nH]c2ncn1N"
  experimental_value: "> 100 µM (inactive)"
- compound: "O=C(/C=C1\\C[C@H]2C=Nc3ccccc3C(=O)N2C1)NCCCCNC(=O)/C=C1\\C[C@H]2C=Nc3ccccc3C(=O)N2C1"
  experimental_value: "16.6 µM (inactive)"
- compound: "CC(=O)Nc1ccccc1SCCSSCCSc1ccccc1NC(C)=O"
  experimental_value: "17.7 µM (inactive)"
- compound: "COC(=O)c1ccc(NCC2=CC(=O)C=CC2=O)cc1"
  experimental_value: "14.8 µM (inactive)"
- compound: "COc1ccc(CC2c3cc(Oc4cc(CC5c6cc(OC)c(OC)cc6CCN5C)ccc4O)c(OC)cc3CCN2C)cc1 (stereo not drawn)"
  experimental_value: "6.1 µM (inactive)"
- compound: "CCCCCCNC(=O)c1cc(NCc2cc(OC)ccc2OC)ccc1O"
  experimental_value: "33 µM (inactive)"
- compound: "CCP(C)(C)=O"
  experimental_value: "> 100 µM (inactive)"
- compound: "O=c1c2cc(S(=O)(=O)O)ccc2nc(COc2ccc(Oc3ccc(Cl)cc3Cl)cc2)n1-c1ccc(Oc2ccc(Cl)cc2)cc1Cl"
  experimental_value: "26.4 µM (inactive)"
- compound: "O=C1CCC(=O)c2sccc2N1"
  experimental_value: "> 100 µM (inactive)"
- compound: "COc1ccccc1-c1csc(CCC(N)C(=O)O)n1 (stereo not drawn)"
  experimental_value: "> 100 µM (inactive)"
- compound: "O=C1C(=O)N(c2cccc(C(F)(F)F)c2)C(=S)N1c1ccccc1"
  experimental_value: "40.5 µM (inactive)"
- compound: "CC1=Nc2ccccc2OC(C)=C1/N=N/c1ccc2[nH]c(C)nc2c1"
  experimental_value: "> 100 µM (inactive)"
- compound: "COc1ccc(C2=CC(C(C)=C(C(N)=O)C(N)=O)C=C(c3ccc(Br)cc3)C2)c(OC)c1 (stereo not drawn)"
  experimental_value: "> 100 µM (inactive)"
- compound: "C=C(CN(C)C)C(=O)c1ccccc1"
  experimental_value: "30.9 µM (inactive)"
- compound: "CC12CC(Sc3ccccc3N1)c1ccccc1O2 (stereo not drawn)"
  experimental_value: "15.2 µM (inactive)"
- compound: "COc1cc(C2c3cc4c(cc3CC3COC(=O)N32)OCO4)cc(OC)c1OC (stereo not drawn)"
  experimental_value: "4.26 µM (inactive)"
- compound: "CC(C(=O)N1C(=O)N(C(=O)C(C)C(O)c2ccccc2)C(c2ccccc2)C1c1ccccc1)C(O)c1ccccc1 (stereo not drawn)"
  experimental_value: "5.52 µM (inactive)"
- compound: "Cc1cc([N+](=O)[O-])c(C)c2c1[nH]c1ccc(/C(CCC3CCCC3)=N\\N)cc12"
  experimental_value: "17.7 µM (inactive)"
- compound: "COc1ccc2c(c1)C=C(C(C)(C)C)NS2(=O)=O"
  experimental_value: "> 100 µM (inactive)"
- compound: "CCSc1nnc2c(-c3ccccc3)n[nH]c2n1"
  experimental_value: "> 100 µM (inactive)"
- compound: "C=CCOCn1ccc(N)nc1=O"
  experimental_value: "> 100 µM (inactive)"
- compound: "Cc1nn(C(=O)c2ccc(Cl)cc2)c2c1C(c1ccccc1)SC(=N)N2 (stereo not drawn)"
  experimental_value: "> 10 µM (inactive)"
- compound: "Cc1nn(C(=O)Cc2ccccc2)c2c1C(c1ccccc1[N+](=O)[O-])SC(=N)N2 (stereo not drawn)"
  experimental_value: "> 100 µM (inactive)"
- compound: "O=C1C=CC(=O)c2c1c1c(c3c2C2c4ccccc4C3c3ccccc32)C2c3ccccc3C1c1ccccc12"
  experimental_value: "16.2 µM (inactive)"
- compound: "O=C(c1ccc(Cl)c(Cl)c1)N(C(=O)N1CCN(c2ccccc2)CC1)S(=O)(=O)c1ccccc1"
  experimental_value: "36.6 µM (inactive)"
- compound: "COC(=O)c1cc2ccc(O)c(O)c2cn1"
  experimental_value: "> 10 µM (inactive)"
- compound: "COc1cc(Nc2c(C#N)[n+]([O-])c3ccccc3[n+]2[O-])cc(OC)c1OC"
  experimental_value: "28.6 µM (inactive)"
- compound: "CC(=O)SCCC(NC(=S)Nc1ccccc1)P(=O)(Oc1ccccc1)Oc1ccccc1 (stereo not drawn)"
  experimental_value: "> 100 µM (inactive)"
- compound: "NS(=O)(=O)c1ccc(NC(=O)c2cc([N+](=O)[O-])cc([N+](=O)[O-])c2)cc1"
  experimental_value: "45.9 µM (inactive)"
- compound: "Cc1ccc(CC(=O)Nc2ccc(NC(=O)/C=C/NC(=O)/C=C/c3ccc(-c4ccccc4)cc3)cc2C(=O)c2ccccc2)cc1"
  experimental_value: "3.05 µM (inactive)"
- compound: "C[N+](C)(C)CC1CCCC(C[N+](C)(C)C)C1=O (stereo not drawn)"
  experimental_value: "19 µM (inactive)"
- compound: "CC(=O)c1cccc(N2COC(C)(C)c3nc4ccccc4n3C2)c1"
  experimental_value: "> 100 µM (inactive)"
- compound: "O=C1c2c(ccc3c2CCC3)CC12Cc1ccccc1C2"
  experimental_value: "33.7 µM (inactive)"
- compound: "N=C(N)SCc1cccc2c(=O)cc(-c3ccccc3)oc12"
  experimental_value: "23.9 µM (inactive)"
- compound: "CC1=C(C(=O)Nc2ccccc2C)C(/C=C/c2ccccc2)C(C(=O)Nc2ccccc2C)=C(C)N1"
  experimental_value: "> 100 µM (inactive)"
- compound: "CC(=O)Oc1cc2c(cc1OC(C)=O)OCC(c1ccccc1)C2 (stereo not drawn)"
  experimental_value: "15 µM (inactive)"
- compound: "O=C1c2ccccc2C(=O)N1CCc1nc(-c2ccccc2)c[nH]1"
  experimental_value: "> 100 µM (inactive)"
- compound: "CCCSC1=N/C(=C\\c2ccco2)C(=O)N1"
  experimental_value: "> 100 µM (inactive)"
- compound: "CC#CC#C/C=C1/O[C@]2(CCC(OC(C)=O)CO2)[C@@H]2O[C@H]12 (stereo partly drawn)"
  experimental_value: "27.7 µM (inactive)"
- compound: "O=C1C=C(Nc2ccc(Br)cc2)c2ccccc2C1=O"
  experimental_value: "15.6 µM (inactive)"
